system: Puccinia recondita f. sp. Tritici; assay: Test B: preventive spray on wheat seedlings, wheat leaf rust disease rating; assay type: in vivo; conditions: 50 ppm, 100 = 100% disease control, 0 = no control
The reader will find reported Test B disease control rating values listed item by item below.
The reply should be a number in %, with the unit left off.

# example entries with known answers
INSERT INTO measurements (molecule, measured_value) VALUES
  ('COc1ccc(-c2c(Cl)c(=O)c(C)nn2-c2cc(OC)ccc2Cl)c(Cl)c1 [Compound 129]', 100),
  ('CCOC(=O)c1nn(-c2cc(OC)cc(OC)c2Cl)c(-c2ccc(F)cc2F)c(C(=O)OCC)c1=O [Compound 127]', 41),
  ('CCn1c(-c2ccc(F)cc2Cl)c(-c2cc(OC)cc(OC)c2)cc(C#N)c1=O [Compound 155]', 89);

Query Test B disease control rating on Puccinia recondita f. sp. Tritici for COc1cc(OC)cc(-n2nc(CC#N)c(=O)c(C)c2-c2ccc(F)cc2F)c1 [Compound 31] 0

----------
system: Zymoseptoria tritici; test: Test A: preventive spray on wheat seedlings, wheat leaf blotch disease rating; type: in vivo; settings: 50 ppm, 100 = 100% disease control, 0 = no control
The reader will find reported Test A disease control rating values listed item by item below.
The reply should be a number in %, with the unit left off.

# example entries with known answers
INSERT INTO assay_data (compound, tgt, measured_value) VALUES
  ('COc1cc(OC)c(Cl)c(-c2c(-c3ccc(F)cc3F)noc(=O)c2C)c1 [Compound 62]', 'Zymoseptoria tritici', 100),
  ('Cc1sccc1-c1nn(C)c(=O)c(C)c1-c1ccc(F)cc1Cl [Compound 8]', 'Zymoseptoria tritici', 99),
  ('CCOC(=O)c1nn(-c2cc(OC)cc(OC)c2Cl)c(-c2ccc(F)cc2)c(C(=O)OCC)c1=O [Compound 126]', 'Zymoseptoria tritici', 0);

Any idea what Test A disease control rating was measured for COc1cc(OC)cc(-c2nc(C)nc(OC)c2-c2ccc(F)cc2Cl)c1 [Compound 58] ? 24

Any idea what Test A disease control rating was measured for COc1ccc(-c2c(Cl)c(=O)c(C)nn2-c2cc(OC)ccc2Cl)c(Cl)c1 [Compound 129] ? 100

----------
The reader will find reported Test A disease control rating values listed item by item below.
test system: Zymoseptoria tritici; test: Test A: preventive spray on wheat seedlings, wheat leaf blotch disease rating; type: in vivo; details: 50 ppm, 100 = 100% disease control, 0 = no control

INSERT INTO measurements (mol_smiles, tgt, measured_value) VALUES
  ('CCOC(=O)c1nn(-c2cc(OC)ccc2Cl)c(-c2ccc(F)cc2F)c(C(=O)OCC)c1=O', 'Zymoseptoria tritici', '0%'),
  ('COc1cc(OC)cc(-n2nc(CCl)c(=O)c(C)c2-c2ccc(F)cc2F)c1', 'Zymoseptoria tritici', '18%'),
  ('COc1cc(OC)c(Cl)c(-c2nc(C)nc(C)c2-c2c(F)cccc2F)c1', 'Zymoseptoria tritici', '100%');

Any idea what Test A disease control rating was measured for Cc1cnn(-c2nn(C)c(=O)c(C)c2-c2ccccc2Cl)c1 ? 0%

Any idea what Test A disease control rating was measured for Cc1c(-c2ccc(F)cc2Cl)c(-c2ccsc2Br)nn(C)c1=O ? 100%

----------
outcome_measure: melting point

# example entries with known answers
INSERT INTO results (compound, measured_value) VALUES
  ('COc1cc(OC)c(Cl)c(-n2nc(Cl)c(=O)c(C)c2-c2ccc(F)cc2Cl)c1 [Compound 92]', '192 to 195 °C'),
  ('COc1cc(OC)cc(-n2nc(C)c(=O)c(C)c2-c2ccc(F)cc2F)c1 [Compound 29]', '124 to 127 °C'),
  ('COc1cc(OC)c(Cl)c(-c2cc(C#N)c(=O)n(C)c2-c2ccc(F)cc2Cl)c1 [Compound 156]', '209 to 211 °C'),
  ('COc1cc(OC)cc(-c2cc(C#N)c(=O)n(C)c2-c2c(F)cc(F)cc2F)c1 [Compound 67]', '180 to 183 °C');

Switching to the query record.
Any idea what melting point was measured for COc1ccc(Cl)c(-c2cc(C)nc(C)c2-c2ccc(F)cc2Cl)c1 [Compound 138] ? 106 to 108 °C

----------
test system: Zymoseptoria tritici; test: Test A: preventive spray on wheat seedlings, wheat leaf blotch disease rating; assay type: in vivo; conditions: 50 ppm, 100 = 100% disease control, 0 = no control
The reader will find reported Test A disease control rating values listed item by item below.

INSERT INTO results (mol_smiles, outcome_measure, measured_value) VALUES
  ('COc1cc(OC)c(Br)c(-c2c(-c3ccc(F)cc3F)noc(=O)c2C)c1', 'Test A disease control rating', '100%'),
  ('COC(=O)c1nn(-c2cc(OC)cc(OC)c2)c(-c2ccc(F)cc2F)c(C)c1=O', 'Test A disease control rating', '8%'),
  ('Cc1cscc1-c1nn(C)c(=O)c(C)c1-c1ccc(F)cc1Cl', 'Test A disease control rating', '100%');

Query Test A disease control rating on Zymoseptoria tritici for COc1ccc(Cl)c(-n2nc(C)c(=O)c(Br)c2-c2ccc(F)cc2Cl)c1 100%

Query Test A disease control rating on Zymoseptoria tritici for CCn1c(-c2ccc(F)cc2Cl)c(-c2cc(OC)cc(OC)c2)cc(C#N)c1=O 8%

----------
test system: Zymoseptoria tritici; assay: Test A: preventive spray on wheat seedlings, wheat leaf blotch disease rating; assay type: in vivo; settings: 50 ppm, 100 = 100% disease control, 0 = no control
outcome_measure: Test A disease control rating (%)
The reply should be a number in %, with the unit left off.

# example entries with known answers
INSERT INTO results (mol_smiles, measured_value) VALUES
  ('Cn1nc(-c2cccnc2)c(-c2c(F)cccc2F)cc1=O', 0),
  ('COc1ccc(Cl)c(-n2nc(NC(C)=O)c(=O)cc2-c2ccc(F)cc2Cl)c1', 41),
  ('COc1cc(OC)c(Cl)c(-n2nc(N)c(=O)c(C)c2-c2ccc(F)cc2Cl)c1', 100);

Query Test A disease control rating on Zymoseptoria tritici for Cc1c(-c2ccc(F)cc2Cl)c(-c2sc(Br)cc2Br)nn(C)c1=O 99

Query Test A disease control rating on Zymoseptoria tritici for COc1ccc(Cl)c(-n2nc(OC)c(=O)cc2-c2ccc(F)cc2Cl)c1 80

Query Test A disease control rating on Zymoseptoria tritici for COc1ccc(Cl)c(-n2nc(Br)c(=O)cc2-c2ccc(F)cc2Cl)c1 82

----------
tested on: Zymoseptoria tritici; assay: Test A: preventive spray on wheat seedlings, wheat leaf blotch disease rating; format: in vivo; settings: Zymoseptoria tritici, 456 h, 50 ppm, 100 = 100% disease control, 0 = no control
outcome_measure: pest or weed control at 50 ppm
Please don't drop the unit; write it after the number.

INSERT INTO measurements (mol_smiles, tgt, measured_value) VALUES
  ('COc1cc(OC)c(Cl)c(-n2nc(Cl)c(=O)c(C)c2-c2ccc(F)cc2Cl)c1', 'Zymoseptoria tritici', '100%'),
  ('COc1cc(OC)cc(-c2nc(C)nc(C)c2-c2c(F)cc(F)cc2F)c1', 'Zymoseptoria tritici', '100%'),
  ('COc1cc(-c2cc(C#N)c(=O)n(C)c2-c2c(F)cc(F)cc2F)cc(OC)c1Cl', 'Zymoseptoria tritici', '87%'),
  ('COc1ccc(Cl)c(-n2nc(C)c(=O)c(Cl)c2-c2ccc(F)cc2)c1', 'Zymoseptoria tritici', '100%'),
  ('COc1cc(OC)c(Cl)c(-c2cc(C#N)c(=O)n(C)c2-c2c(F)cc(F)cc2F)c1', 'Zymoseptoria tritici', '100%'),
  ('COc1cc(OC)c(Br)c(-c2nc(C)nc(C)c2-c2ccc(F)cc2Cl)c1', 'Zymoseptoria tritici', '100%'),
  ('COc1cc(-n2nc(CO)c(=O)c(C)c2-c2ccc(F)cc2F)cc(OC)c1Cl', 'Zymoseptoria tritici', '0%');

Switching to the query record.
Query pest or weed control at 50 ppm on Zymoseptoria tritici for COc1cc(OC)c(Cl)c(-c2nc(C)nc(C)c2-c2c(F)cc(F)cc2F)c1 100%

----------
The reader will find reported Test B disease control rating values listed item by item below.
test system: Puccinia recondita f. sp. Tritici; test: Test B: preventive spray on wheat seedlings, wheat leaf rust disease rating; format: in vivo; conditions: 50 ppm, 100 = 100% disease control, 0 = no control
The reply should be a number in %, with the unit left off.

# example entries with known answers
INSERT INTO measurements (mol_smiles, outcome_measure, measured_value) VALUES
  ('COc1ccc(Cl)c(-n2nc(NC(C)=O)c(=O)cc2-c2ccc(F)cc2Cl)c1', 'Test B disease control rating', 89),
  ('COc1cc(OC)c(Cl)c(-n2nc(C#N)c(=O)c(C)c2-c2ccc(F)cc2Cl)c1', 'Test B disease control rating', 100),
  ('Cc1cnn(-c2nn(C)c(=O)c(C)c2-c2ccccc2Cl)c1', 'Test B disease control rating', 0),
  ('COc1cc(OC)cc(-n2nc(CF)c(=O)c(C)c2-c2ccc(F)cc2F)c1', 'Test B disease control rating', 100),
  ('Cc1c(-c2ccc(F)cc2Cl)c(-c2sc(Br)cc2Br)nn(C)c1=O', 'Test B disease control rating', 68);

Any idea what Test B disease control rating was measured for COc1cc(OC)c(Cl)c(-c2nc(C)nc(C)c2-c2c(F)cccc2F)c1 ? 100
